Where these numbers come from: ChEMBL document CHEMBL4699442

assay: Lipophilicity, logD of compound at pH 7.4 by RP-HPLC analysis; assay type: physicochemical; settings: buffer
Sorting guide: entries reporting logD beneath 3 go in the 1 pile, the rest go in the 0 pile.

Input line: Just wondering, is logD of "CCC/N=C1\S/C(=C\c2ccc(O)c(C)c2)C(=O)N1c1ccccc1C" below 3?
Output line: 0

Input line: Does "CCC/N=C1\S/C(=C\c2ccc(O)c(Cl)c2)C(=O)N1c1ccccc1C" have logD strictly under 3?
Output line: 0

Input line: Hi there! Is logD for "CCC/N=C1\S/C(=C\c2ccc(O)c(Cl)c2)C(=O)N1c1ccccc1OC" below 3, do you know?
Output line: 0

Input line: Input "COCC/N=C1\S/C(=C\c2ccc(O)c(Cl)c2)C(=O)N1c1ccccc1C" ; condition: logD strictly below 3. Does it hold?
Output line: 1

Input line: Problem: For the molecule "CCC/N=C1\S/C(=C\c2ccc(O)c(Cl)c2)C(=O)N1C1CC1" , is logD under 3?
Output line: 0

Input line: In the record for "CCC/N=C1\S/C(=C\c2ccc(O)c(Cl)c2)C(=O)N1c1ccccc1O" , is logD less than 3?
Output line: 1

Input line: Consider the molecule "CCC/N=C1\S/C(=C\c2ccc(O)c(Cl)c2)C(=O)N1C(C)C" . Is its logD strictly less than 3?
Output line: 0

Input line: Is the reported logD for "CCC/N=C1\S/C(=C\c2ccc(O)c(C(F)(F)F)c2)C(=O)N1c1ccccc1C" strictly below 3?
Output line: 0

Input line: Bench note: check whether "CCC/N=C1\S/C(=C\c2ccc(O)cc2)C(=O)N1c1ccccc1C" shows logD below 3
Output line: 0

Input line: Lab note: confirm whether the reported logD for this molecule is below 3, equality not counting. molecule: "CCC/N=C1\S/C(=C\c2ccc(O)c(Cl)c2)C(=O)N1C1CCS(=O)(=O)CC1"
Output line: 1

Input line: Lab log: compare recorded logD with 3; is it strictly lower for "Cc1ccccc1N1C(=O)/C(=C/c2ccc(O)c(Cl)c2)S/C1=N\CCO" ?
Output line: 1

Input line: Please determine if CCC/N=C1\S/C(=C\c2ccc(O)c(Cl)c2)C(=O)N1C1CCN(C)C(=O)C1 (racemic) is below 3 in terms of logD.
Output line: 1

* * *

assay: Metabolic stability in human Hepatocyte assessed as intrinsic clearance at 1 uM incubated for 90 mins by UPLC-MS/MS analysis; format: ADME, tissue-based; settings: hepatocytes
Exercise: for every item that follows, state its recorded CLH.
The reply should contain only the number, in mL/min/g.

The molecule identified as "CCC/N=C1\S/C(=C\c2ccc(O)cc2)C(=O)N1c1ccccc1C" registered its CLH at 1.7

Recorded result, "CCC/N=C1\S/C(=C\c2ccc(O)c(C)c2)C(=O)N1c1ccccc1C" , CLH: 31

Input "CCC/N=C1\S/C(=C\c2ccc(O)c(C(C)C)c2)C(=O)N1c1ccccc1C" . Output CLH: 12
